Values were extracted from patent US20230174484A1.

Target desc: human GPR39 receptor (Homo sapiens, UniProt O43194)
Construct: PC3 Cells, Expressing the Endogenous Human GPR39 Receptor; endogenous in cells; host or cells: PC3 (human prostate adenocarcinoma) cells
Sequence (O43194 whole entry): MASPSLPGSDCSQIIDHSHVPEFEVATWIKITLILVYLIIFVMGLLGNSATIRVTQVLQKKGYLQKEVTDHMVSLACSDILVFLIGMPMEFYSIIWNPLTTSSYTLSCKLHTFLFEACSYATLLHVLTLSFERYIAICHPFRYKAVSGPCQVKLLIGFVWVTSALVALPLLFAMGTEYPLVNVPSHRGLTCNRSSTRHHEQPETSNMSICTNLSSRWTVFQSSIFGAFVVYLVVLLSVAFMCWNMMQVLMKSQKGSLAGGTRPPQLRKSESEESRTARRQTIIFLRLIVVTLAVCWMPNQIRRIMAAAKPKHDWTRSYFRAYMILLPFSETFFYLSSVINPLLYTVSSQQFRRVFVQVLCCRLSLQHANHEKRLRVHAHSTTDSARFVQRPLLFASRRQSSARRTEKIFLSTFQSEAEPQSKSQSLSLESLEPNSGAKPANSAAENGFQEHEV
Assay summary: Measurement of intracellular calcium response in PC3 cells (FLIPR), antagonism of the C3 agonist response
Assay type: cell-based
Condition label: functional pKi (modified Cheng-Prusoff), inhibition of the C3 (TC-G 1008) response at EC90, 30 μM ZnCl2, read-out: fpKi activity
pKi: −log10 of the molar value.
Measure: pKi

# Compound, pKi
records = [
    ("Cc1nnc(-c2ccc(C(=O)N3CCN(C)CC3c3ccccc3)c(N3CCC(C(F)(F)F)C3)c2)[nH]1 (single isomer, unassigned) [Example 177c]", "≥ 7.30"),
    ("O=C(Nc1ccc(C(=O)N2CCN(c3cccnc3)CC2)c(N2CCCCCC2)c1)C1CC1", "6.60 to 7.20"),
    ("Cc1nnc(-c2ccc(NC(=O)C3CC3)cc2N2CCCCCC2)n1C", "5.20 to 5.90"),
    ("COc1ccccc1CN1CCN(C(=O)c2ccc(NC(=O)C3CC3)cc2N2CCCCCC2)CC1", "6.00 to 6.50"),
    ("O=C(Nc1ccc(C(=O)N2CCS(=O)(=O)CC2)c(N2CCC3(CCC3)C2)n1)C1CC1", "≥ 7.30"),
    ("O=C(NCc1ccccc1)c1ccc(NC(=O)C2CC2)cc1N1CCCCCC1", "6.00 to 6.50"),
    ("C[C@@H]1C[C@H](C)CN(c2cc(NC(=O)C3CC3)ccc2C(=O)N2CCS(=O)(=O)CC2)C1", "≥ 7.30"),
    ("CC1CC(C)CN(c2cc(NC(=O)C3CC3)ccc2C(=O)N2CCN(C)CC2c2ccccc2)C1 (single isomer, unassigned) [Example 68e]", "6.60 to 7.20"),
]

Query block: Could you share which pKi value was measured for CN1CCN(C(=O)c2ccc(NC(=O)C3CC3)cc2N2CCCCCC2)C(Cc2ccccc2)C1 (stereo not drawn) ?
Result block: 6.60 to 7.20

Query block: Could you share which pKi value was measured for CN1CCN(C(=O)c2ccc(NC(=O)C3CC3)cc2-n2ccc(C(F)(F)F)n2)C(c2ccccc2)C1 (stereo not drawn) ?
Result block: 6.60 to 7.20
